Measured Target: furin, P09958;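 note: purified furin at 1:10 enzyme:substrate in 50 mM HEPES pH 7.5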
Sequence (P09958 whole entry): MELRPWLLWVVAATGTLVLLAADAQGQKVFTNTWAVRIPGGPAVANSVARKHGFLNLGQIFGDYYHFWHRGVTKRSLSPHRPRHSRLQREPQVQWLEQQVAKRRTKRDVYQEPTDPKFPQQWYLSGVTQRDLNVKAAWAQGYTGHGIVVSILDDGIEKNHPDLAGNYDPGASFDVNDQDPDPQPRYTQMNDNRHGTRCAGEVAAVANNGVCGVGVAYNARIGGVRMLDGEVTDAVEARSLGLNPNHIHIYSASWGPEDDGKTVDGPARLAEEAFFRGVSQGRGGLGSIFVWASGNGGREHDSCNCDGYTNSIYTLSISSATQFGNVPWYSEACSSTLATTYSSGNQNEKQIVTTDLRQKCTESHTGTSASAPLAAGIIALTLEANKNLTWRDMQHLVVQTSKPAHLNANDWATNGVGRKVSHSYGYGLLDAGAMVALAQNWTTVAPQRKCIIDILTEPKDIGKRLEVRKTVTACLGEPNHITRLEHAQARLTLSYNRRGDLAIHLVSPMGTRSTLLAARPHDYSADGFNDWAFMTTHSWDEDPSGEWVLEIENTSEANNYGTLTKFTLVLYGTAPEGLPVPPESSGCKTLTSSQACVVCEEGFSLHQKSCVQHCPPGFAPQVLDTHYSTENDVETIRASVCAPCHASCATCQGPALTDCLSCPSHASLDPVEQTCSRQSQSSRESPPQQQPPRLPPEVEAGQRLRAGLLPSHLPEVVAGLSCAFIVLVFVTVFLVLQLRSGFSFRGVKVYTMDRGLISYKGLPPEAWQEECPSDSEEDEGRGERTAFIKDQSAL
Assay Notes: furin cleavage Z-score vs untreated control; higher = more cleavage, active = 3.5 or more, inactive = 1 or less, 8 variable residues between constant flanks
Settings: 7.5 min
The list shows a part of the results. How many sequences the whole screen found active is unknown.
Labels: active, inactive

>>> category_label("CALAPGAKQNAGNASASA [HC362]")
"inactive"
>>> category_label("CAPLKRSVSLAGNASASA [FS-2876]")
"inactive"
>>> category_label("CAGLKRSVSRAGNASASA [FS-2477]")
"inactive"
>>> category_label("CAKIKRSVSPAGNASASA [FS-2247]")
"active"

This collection of values is drawn from the supplement of paper PMC3545927.
